Entry source: the kinase profiling compilation of Christmann-Franck et al. (2016)

Catalogue of kinase still bound, per cent of control readings, one per entry.
- Tested on: KIT (human), P10721 [L576P]
- Sequence (P10721 whole entry L576P, looked up): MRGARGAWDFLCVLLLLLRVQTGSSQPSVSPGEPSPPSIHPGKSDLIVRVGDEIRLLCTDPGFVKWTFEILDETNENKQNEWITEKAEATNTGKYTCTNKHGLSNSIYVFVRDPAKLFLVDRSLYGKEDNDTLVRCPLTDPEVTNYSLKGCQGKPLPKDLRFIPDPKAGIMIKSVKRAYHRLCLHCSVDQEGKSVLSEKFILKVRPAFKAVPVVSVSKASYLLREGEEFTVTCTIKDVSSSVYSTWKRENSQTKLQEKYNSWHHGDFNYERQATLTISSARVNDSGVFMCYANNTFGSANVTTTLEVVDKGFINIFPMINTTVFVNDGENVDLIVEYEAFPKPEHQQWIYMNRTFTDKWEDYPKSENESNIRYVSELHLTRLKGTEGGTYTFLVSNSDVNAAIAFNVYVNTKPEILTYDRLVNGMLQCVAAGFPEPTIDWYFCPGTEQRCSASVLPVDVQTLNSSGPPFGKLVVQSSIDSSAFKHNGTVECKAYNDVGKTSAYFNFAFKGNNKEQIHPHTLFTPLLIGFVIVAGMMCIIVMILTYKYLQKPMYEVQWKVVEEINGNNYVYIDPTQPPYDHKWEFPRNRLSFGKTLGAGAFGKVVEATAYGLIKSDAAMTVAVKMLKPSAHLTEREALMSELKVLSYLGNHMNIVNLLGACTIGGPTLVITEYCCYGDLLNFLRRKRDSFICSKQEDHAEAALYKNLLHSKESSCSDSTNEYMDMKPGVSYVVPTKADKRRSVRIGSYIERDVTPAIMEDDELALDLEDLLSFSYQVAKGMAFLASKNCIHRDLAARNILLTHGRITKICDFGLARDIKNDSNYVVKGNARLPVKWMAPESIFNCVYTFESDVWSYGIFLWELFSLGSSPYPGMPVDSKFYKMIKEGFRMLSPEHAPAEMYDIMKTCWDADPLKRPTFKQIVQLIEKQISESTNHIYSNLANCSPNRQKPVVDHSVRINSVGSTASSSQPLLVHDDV
- assay.protocol: KINOMEscan competition binding
- condition.parameters: compound 10.0 µM

[
  {
    "compound": "O=c1cc(N2CCOCC2)oc2c(-c3cccc4c3sc3ccccc34)cccc12",
    "measure.unit": "%",
    "kinase still bound, per cent of control": 66
  },
  {
    "compound": "Cc1cc([C@@H](C)Nc2ccccc2C(=O)O)c2nc(N3CCOCC3)cc(=O)n2c1",
    "measure.unit": "%",
    "kinase still bound, per cent of control": 95
  },
  {
    "compound": "CCN(CCO)CCCOc1ccc2c(Nc3cc(CC(=O)Nc4cccc(F)c4)[nH]n3)ncnc2c1",
    "measure.unit": "%",
    "kinase still bound, per cent of control": 0
  },
  {
    "compound": "Nc1ccc(-c2ccc3ncc4ccc(=O)n(-c5cccc(C(F)(F)F)c5)c4c3c2)cn1",
    "measure.unit": "%",
    "kinase still bound, per cent of control": 51
  },
  {
    "compound": "C[C@@H](Oc1cc(-c2cnn(C3CCNCC3)c2)cnc1N)c1c(Cl)ccc(F)c1Cl",
    "measure.unit": "%",
    "kinase still bound, per cent of control": 43
  },
  {
    "compound": "COc1cc(C(=O)N2CCC(N3CCN(C)CC3)CC2)ccc1Nc1ncc2c(n1)N(C)c1ccccc1C(=O)N2C",
    "measure.unit": "%",
    "kinase still bound, per cent of control": 100
  },
  {
    "compound": "N#C/C(=C1/Nc2ccccc2S1)c1ccnc(NCCc2cccnc2)n1",
    "measure.unit": "%",
    "kinase still bound, per cent of control": 33
  },
  {
    "compound": "Cn1c(=O)n(-c2ccc(C(C)(C)C#N)cc2)c2c3cc(-c4cnc5ccccc5c4)ccc3ncc21",
    "measure.unit": "%",
    "kinase still bound, per cent of control": 100
  },
  {
    "compound": "O=C1Nc2ccc(I)cc2/C1=C/c1cc(Br)c(O)c(Br)c1",
    "measure.unit": "%",
    "kinase still bound, per cent of control": 6.6
  }
]
